// reported residual activity for each item listed
targetUnderTest: Serine/threonine-protein kinase WNK3 (Homo sapiens) (UniProt Q9BYP7);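 note: remaining kinase activity expressed versus control, assayed in 8 mM MOPS buffer pH 7.0 with 0.2 mM EDTA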
Sequence (Q9BYP7 whole entry): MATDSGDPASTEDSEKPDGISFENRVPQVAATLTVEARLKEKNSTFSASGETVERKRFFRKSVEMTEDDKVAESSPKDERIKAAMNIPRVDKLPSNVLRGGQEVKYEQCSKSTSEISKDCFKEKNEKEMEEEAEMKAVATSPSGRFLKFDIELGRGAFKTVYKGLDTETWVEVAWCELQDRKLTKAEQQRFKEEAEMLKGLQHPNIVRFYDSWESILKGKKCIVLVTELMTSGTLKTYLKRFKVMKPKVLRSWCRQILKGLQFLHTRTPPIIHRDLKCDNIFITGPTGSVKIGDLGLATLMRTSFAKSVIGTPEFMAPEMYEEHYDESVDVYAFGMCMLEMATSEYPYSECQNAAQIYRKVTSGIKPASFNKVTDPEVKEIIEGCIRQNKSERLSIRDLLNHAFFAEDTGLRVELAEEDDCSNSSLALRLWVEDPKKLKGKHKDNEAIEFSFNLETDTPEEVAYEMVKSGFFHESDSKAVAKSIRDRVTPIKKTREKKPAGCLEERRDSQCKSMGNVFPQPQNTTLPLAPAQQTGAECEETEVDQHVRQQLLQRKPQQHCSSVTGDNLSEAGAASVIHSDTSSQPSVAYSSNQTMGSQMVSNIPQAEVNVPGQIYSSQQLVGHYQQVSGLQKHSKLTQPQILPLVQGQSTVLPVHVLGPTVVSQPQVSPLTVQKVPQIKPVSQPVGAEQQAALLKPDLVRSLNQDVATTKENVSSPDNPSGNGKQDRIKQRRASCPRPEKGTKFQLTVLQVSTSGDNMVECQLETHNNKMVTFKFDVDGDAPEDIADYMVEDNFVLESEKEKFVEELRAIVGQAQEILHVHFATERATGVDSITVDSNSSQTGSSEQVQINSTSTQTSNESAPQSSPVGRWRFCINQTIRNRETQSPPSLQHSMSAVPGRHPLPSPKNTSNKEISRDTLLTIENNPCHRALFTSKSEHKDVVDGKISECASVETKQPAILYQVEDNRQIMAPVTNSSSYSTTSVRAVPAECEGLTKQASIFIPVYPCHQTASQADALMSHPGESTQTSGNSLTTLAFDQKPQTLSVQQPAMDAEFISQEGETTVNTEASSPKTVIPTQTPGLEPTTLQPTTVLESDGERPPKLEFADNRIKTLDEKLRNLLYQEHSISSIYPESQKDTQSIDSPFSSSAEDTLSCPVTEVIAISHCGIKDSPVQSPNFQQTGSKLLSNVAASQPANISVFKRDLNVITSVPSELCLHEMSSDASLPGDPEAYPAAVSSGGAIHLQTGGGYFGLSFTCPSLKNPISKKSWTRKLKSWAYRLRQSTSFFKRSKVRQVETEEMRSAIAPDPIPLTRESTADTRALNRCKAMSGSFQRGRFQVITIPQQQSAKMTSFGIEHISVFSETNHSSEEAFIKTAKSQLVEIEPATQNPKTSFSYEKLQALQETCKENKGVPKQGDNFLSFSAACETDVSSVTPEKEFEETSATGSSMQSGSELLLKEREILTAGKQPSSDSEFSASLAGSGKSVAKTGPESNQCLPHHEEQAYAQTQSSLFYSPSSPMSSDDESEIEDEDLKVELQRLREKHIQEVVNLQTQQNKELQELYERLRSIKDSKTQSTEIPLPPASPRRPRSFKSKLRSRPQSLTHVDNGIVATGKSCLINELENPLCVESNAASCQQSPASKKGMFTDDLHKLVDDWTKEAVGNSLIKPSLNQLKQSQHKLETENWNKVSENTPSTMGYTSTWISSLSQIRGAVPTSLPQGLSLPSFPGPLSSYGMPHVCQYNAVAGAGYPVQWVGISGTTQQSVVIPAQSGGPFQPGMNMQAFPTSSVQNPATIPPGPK
conditionSummary: at 1 µM
Description: Millipore: Percentage of residual kinase activity of WNK3 at 1uM relative to control. Control inhibitor: Phosphoric acid* at 0.3uM. Buffer: 8 mM MOPS pH 7.0, 0.2 mM EDTA
State the answer as a number, implicitly in %.

A selection of reference data follows.
smilesNotation | targetUnderTest | residual activity, %
Cc1ccc(S(=O)(=O)/C=C/C#N)cc1 | Serine/threonine-protein kinase WNK3 (Homo sapiens) (UniProt Q9BYP7) | 98
Ic1cccc(CSc2nnc(-c3ccncc3)o2)c1 | Serine/threonine-protein kinase WNK3 (Homo sapiens) (UniProt Q9BYP7) | 89

Exercise: For Serine/threonine-protein kinase WNK3 (Homo sapiens) (UniProt Q9BYP7), give the measured residual activity of the entry `Cc1nc2cc3nc(-c4cccs4)cnc3cc2n1C`
Solution: 124

Exercise: For Serine/threonine-protein kinase WNK3 (Homo sapiens) (UniProt Q9BYP7), give the measured residual activity of the entry `O=Nc1c(-c2c(O)[nH]c3ccccc23)[nH]c2ccccc12`
Solution: 89

Exercise: For Serine/threonine-protein kinase WNK3 (Homo sapiens) (UniProt Q9BYP7), give the measured residual activity of the entry `Cc1cc2ncc(-c3ccccc3)nc2cc1C`
Solution: 96

Exercise: For Serine/threonine-protein kinase WNK3 (Homo sapiens) (UniProt Q9BYP7), give the measured residual activity of the entry `O=C1NC(=O)/C(=C\c2ccc3nccnc3c2)S1`
Solution: 83

Exercise: For Serine/threonine-protein kinase WNK3 (Homo sapiens) (UniProt Q9BYP7), give the measured residual activity of the entry `Nc1n[nH]c2nnc(-c3c(-c4ccccc4)nn4ccccc34)cc12`
Solution: 83

Exercise: For Serine/threonine-protein kinase WNK3 (Homo sapiens) (UniProt Q9BYP7), give the measured residual activity of the entry `Nc1cccc(-c2cc3c(Oc4cccc(O)c4)ncnc3[nH]2)c1`
Solution: 93

Exercise: For Serine/threonine-protein kinase WNK3 (Homo sapiens) (UniProt Q9BYP7), give the measured residual activity of the entry `CC(=O)O/N=C1\C(=C2\C(=O)Nc3cc(Br)ccc32)Nc2ccccc21`
Solution: 101

Exercise: For Serine/threonine-protein kinase WNK3 (Homo sapiens) (UniProt Q9BYP7), give the measured residual activity of the entry `CNc1cc2c(Nc3cccc(Br)c3)ncnc2cn1`
Solution: 101

Exercise: For Serine/threonine-protein kinase WNK3 (Homo sapiens) (UniProt Q9BYP7), give the measured residual activity of the entry `CC#CC(=O)Nc1cc2c(Nc3ccc(F)c(Cl)c3)ncnc2cn1`
Solution: 102

Exercise: For Serine/threonine-protein kinase WNK3 (Homo sapiens) (UniProt Q9BYP7), give the measured residual activity of the entry `O=C(O)c1ccc2c3c1cccc3c(=O)n1c3ccccc3nc21`
Solution: 111

Exercise: For Serine/threonine-protein kinase WNK3 (Homo sapiens) (UniProt Q9BYP7), give the measured residual activity of the entry `c1ccc2c(-c3ccncc3)c[nH]c2c1`
Solution: 98

Exercise: For Serine/threonine-protein kinase WNK3 (Homo sapiens) (UniProt Q9BYP7), give the measured residual activity of the entry `O=C1Nc2cc(Br)ccc2/C1=C1/Nc2ccccc2/C1=N\O`
Solution: 93

Exercise: For Serine/threonine-protein kinase WNK3 (Homo sapiens) (UniProt Q9BYP7), give the measured residual activity of the entry `Oc1ccc(-c2nc(-c3ccc(F)cc3)c(-c3ccncc3)[nH]2)cc1`
Solution: 109

Exercise: For Serine/threonine-protein kinase WNK3 (Homo sapiens) (UniProt Q9BYP7), give the measured residual activity of the entry `Oc1n[nH]c2nnc(-c3c(-c4ccccc4)nn4ccccc34)cc12`
Solution: 92

Exercise: For Serine/threonine-protein kinase WNK3 (Homo sapiens) (UniProt Q9BYP7), give the measured residual activity of the entry `C[C@@H](N)[C@H]1CC[C@H](C(=O)Nc2ccncc2)CC1`
Solution: 106

Exercise: For Serine/threonine-protein kinase WNK3 (Homo sapiens) (UniProt Q9BYP7), give the measured residual activity of the entry `CCC(=O)Nc1ccc2ncnc(Nc3cccc(Br)c3)c2c1`
Solution: 95

Exercise: For Serine/threonine-protein kinase WNK3 (Homo sapiens) (UniProt Q9BYP7), give the measured residual activity of the entry `O=C1NC(=O)c2c1c1c3ccccc3[nH]c1c1[nH]c3cc(Br)ccc3c21`
Solution: 85

Exercise: For Serine/threonine-protein kinase WNK3 (Homo sapiens) (UniProt Q9BYP7), give the measured residual activity of the entry `COc1cc2ncnc(N3CCN(C(=O)Nc4ccc(Oc5ccccc5)cc4)CC3)c2cc1OC`
Solution: 80

Exercise: For Serine/threonine-protein kinase WNK3 (Homo sapiens) (UniProt Q9BYP7), give the measured residual activity of the entry `N#CC(C#N)=C(N)/C(C#N)=C/c1ccc(O)cc1`
Solution: 96

// provenance: ChEMBL document CHEMBL2218924
